Assay: Oral bioavailability in rat at 3 mg/kg
Assay type: ADME, organism-based
Details: in vivo
Experimental Endpoint: bioavailability (%)
Quick note: give the figure in %, leave out the unit.

# Smiles Notation, Experimental Endpoint, Unit Spec, Test Result
measured = [
    ("Cc1ncc(-c2c(C)c(CN[C@H]3CC[C@@H](F)C3)nn2-c2ncccc2Cl)cc1F", "bioavailability", "%", 3.2),
]

# context switch: different compound, same bioavailability
For the compound Cc1c(CN[C@H]2CC[C@@H](F)C2)nn(CCC#N)c1-c1cc(F)cc(F)c1 , what bioavailability is on record?
21

====

Tested on: Mus musculus
Experiment: Plasma concentration in mouse at 30 mg/kg, po
Format: ADME, organism-based
Parameters: dose 30 mg/kg, route oral
Settings: in vivo
Experimental Endpoint: concentration (nM)
Quick note: give the figure in nM, leave out the unit.

For the compound Cc1c(CN[C@H]2CC[C@@H](F)C2)nn(CCC#N)c1-c1cc(F)cc(F)c1 , what concentration is on record?
1630
